Measured MEC, listed per entry for reference.
Test system: A. fumigatus MX 5944
measurement.protocol: MEC assay (Example 31)
Assay type: cell-based
setup.conditions: RPMI pH 7.0, 35° C., 24-48 hr
assay.endpoint: MEC

>>> measurement("CC[C@H](C)C[C@H](C)CCCCCCCCC(=O)N[C@H]1C[C@@H](O)[C@@H](NCCN)NC(=O)[C@@H]2[C@@H](O)CCN2C(=O)[C@H]([C@H](O)CCNC(=O)[C@@H](N)CCCCNC(=O)[C@H](Cc2ccccc2)NC(=O)[C@H](CC(C)C)NC(=O)[C@H](CCSC)NC=O)NC(=O)[C@H]([C@H](O)[C@@H](O)c2ccc(O)cc2)NC(=O)[C@@H]2C[C@@H](O)CN2C(=O)[C@H]([C@@H](C)O)NC1=O [Compound 15]")
"0.12 µg/mL"
>>> measurement("CC[C@H](C)C[C@H](C)CCCCCCCCC(=O)N[C@H]1C[C@@H](O)[C@@H](NCCN)NC(=O)[C@@H]2[C@@H](O)CCN2C(=O)[C@H]([C@H](O)CCNC(=O)[C@H](CO)NC(=O)[C@H](CC(C)C)NC(=O)[C@H](CCSC)NC=O)NC(=O)[C@H]([C@H](O)[C@@H](O)c2ccc(O)cc2)NC(=O)[C@@H]2C[C@@H](O)CN2C(=O)[C@H]([C@@H](C)O)NC1=O [Compound 29]")
"0.25 µg/mL"
>>> measurement("CC[C@H](C)C[C@H](C)CCCCCCCCC(=O)N[C@H]1C[C@@H](O)[C@@H](NCCN)NC(=O)[C@@H]2[C@@H](O)CCN2C(=O)[C@H]([C@H](O)CCNC(=O)[C@H](CC(C)C)NC(=O)[C@H](CCSC)NC=O)NC(=O)[C@H]([C@H](O)[C@@H](O)c2ccc(O)cc2)NC(=O)[C@@H]2C[C@@H](O)CN2C(=O)[C@H]([C@@H](C)O)NC1=O [Compound 27]")
"0.12 µg/mL"
>>> measurement("CC[C@H](C)C[C@H](C)CCCCCCCCC(=O)N[C@H]1C[C@@H](O)[C@@H](NCCNC(=O)[C@H](Cc2ccccc2)NC(=O)[C@H](CC(C)C)NC(=O)[C@H](CCSC)NC=O)NC(=O)[C@@H]2[C@@H](O)CCN2C(=O)[C@H]([C@H](O)CCN)NC(=O)[C@H]([C@H](O)[C@@H](O)c2ccc(O)cc2)NC(=O)[C@@H]2C[C@@H](O)CN2C(=O)[C@H]([C@@H](C)O)NC1=O [Compound 2]")
"0.12 to 1 µg/mL"

###

System: A. fumigatus ATCC 13073
measurement.protocol: MEC assay (Example 31)
Format: cell-based
setup.conditions: RPMI pH 7.0, 35° C., 24-48 hr
Measured MEC, listed per entry for reference.
assay.endpoint: MEC (µg/mL)

>>> measurement("CC[C@H](C)C[C@H](C)CCCCCCCCC(=O)N[C@H]1C[C@@H](O)[C@@H](NCCN)NC(=O)[C@@H]2[C@@H](O)CCN2C(=O)[C@H]([C@H](O)CCNC(=O)[C@H](CCSC)NC(=O)[C@H](CC(C)C)NC(=O)[C@H](CCSC)NC=O)NC(=O)[C@H]([C@H](O)[C@@H](O)c2ccc(O)cc2)NC(=O)[C@@H]2C[C@@H](O)CN2C(=O)[C@H]([C@@H](C)O)NC1=O")
0.25
>>> measurement("CC[C@H](C)C[C@H](C)CCCCCCCCC(=O)N[C@H]1C[C@@H](O)[C@@H](NCCNC(=O)CCNC(=O)[C@H](Cc2ccccc2)NC(=O)[C@H](CC(C)C)NC(=O)[C@H](CCSC)NC=O)NC(=O)[C@@H]2[C@@H](O)CCN2C(=O)[C@H]([C@H](O)CCN)NC(=O)[C@H]([C@H](O)[C@@H](O)c2ccc(O)cc2)NC(=O)[C@@H]2C[C@@H](O)CN2C(=O)[C@H]([C@@H](C)O)NC1=O")
1
>>> measurement("CC[C@H](C)C[C@H](C)CCCCCCCCC(=O)N[C@H]1C[C@@H](O)[C@@H](NCCN)NC(=O)[C@@H]2[C@@H](O)CCN2C(=O)[C@H]([C@H](O)CCNC(=O)CCNC(=O)[C@H](Cc2ccccc2)NC(=O)[C@H](CC(C)C)NC(=O)[C@H](CCSC)NC=O)NC(=O)[C@H]([C@H](O)[C@@H](O)c2ccc(O)cc2)NC(=O)[C@@H]2C[C@@H](O)CN2C(=O)[C@H]([C@@H](C)O)NC1=O")
1

###

Test system: C. albicans ATCC 90028
measurement.protocol: microbe, parasite or virus in culture
Format: cell-based
setup.conditions: ATCC 90028, pH 7
assay.endpoint: MIC

>>> measurement("CC[C@H](C)C[C@H](C)CCCCCCCCC(=O)N[C@H]1C[C@@H](O)[C@@H](NCCNC(=O)[C@H](Cc2ccccc2)NC(=O)[C@H](CC(C)C)NC(=O)[C@H](CCSC)NC=O)NC(=O)[C@@H]2[C@@H](O)CCN2C(=O)[C@H]([C@H](O)CCN)NC(=O)[C@H]([C@H](O)[C@@H](O)c2ccc(O)cc2)NC(=O)[C@@H]2C[C@@H](O)CN2C(=O)[C@H]([C@@H](C)O)NC1=O")
"2 µg/mL"
>>> measurement("CC[C@H](C)C[C@H](C)CCCCCCCCC(=O)N[C@H]1C[C@@H](O)[C@@H](OCCN)NC(=O)[C@@H]2[C@@H](O)CCN2C(=O)[C@H]([C@H](O)CCNC(=O)CCNC(=O)[C@H](Cc2ccccc2)NC(=O)[C@H](CC(C)C)NC(=O)[C@H](CCSC)NC=O)NC(=O)[C@H]([C@H](O)[C@@H](O)c2ccc(O)cc2)NC(=O)[C@@H]2C[C@@H](O)CN2C(=O)[C@H]([C@@H](C)O)NC1=O")
"2 µg/mL"
>>> measurement("CC[C@H](C)C[C@H](C)CCCCCCCCC(=O)N[C@H]1C[C@@H](O)[C@@H](NCCNC(=O)CCNC(=O)[C@H](Cc2ccccc2)NC(=O)[C@H](CC(C)C)NC(=O)[C@H](CCSC)NC=O)NC(=O)[C@@H]2[C@@H](O)CCN2C(=O)[C@H]([C@H](O)CCN)NC(=O)[C@H]([C@H](O)[C@@H](O)c2ccc(O)cc2)NC(=O)[C@@H]2C[C@@H](O)CN2C(=O)[C@H]([C@@H](C)O)NC1=O")
"2 µg/mL"

###

Test system: Neutrophils purified from human peripheral blood
measurement.protocol: Human Neutrophil Transwell Migration Assay
Type: cell-based
setup.conditions: conc 1 μg/mL; 37° C., 45 minutes; % of the maximum migration possible
Measured % Neutrophil Migration, listed per entry for reference.
assay.endpoint: % Neutrophil Migration (%)

>>> measurement("CC[C@H](C)C[C@H](C)CCCCCCCCC(=O)N[C@H]1C[C@@H](O)[C@@H](NCCNC(=O)CCNC(=O)[C@H](Cc2ccccc2)NC(=O)[C@H](CC(C)C)NC(=O)[C@H](CCSC)NC=O)NC(=O)[C@@H]2[C@@H](O)CCN2C(=O)[C@H]([C@H](O)CCN)NC(=O)[C@H]([C@H](O)[C@@H](O)c2ccc(O)cc2)NC(=O)[C@@H]2C[C@@H](O)CN2C(=O)[C@H]([C@@H](C)O)NC1=O")
"−9.8"
>>> measurement("CC[C@H](C)C[C@H](C)CCCCCCCCC(=O)N[C@H]1C[C@@H](O)[C@@H](NCCN)NC(=O)[C@@H]2[C@@H](O)CCN2C(=O)[C@H]([C@H](O)CCNC(=O)[C@H](CCCCN)NC(=O)[C@H](Cc2ccccc2)NC(=O)[C@H](CC(C)C)NC(=O)[C@H](CCSC)NC=O)NC(=O)[C@H]([C@H](O)[C@@H](O)c2ccc(O)cc2)NC(=O)[C@@H]2C[C@@H](O)CN2C(=O)[C@H]([C@@H](C)O)NC1=O")
21.4
>>> measurement("CC[C@H](C)C[C@H](C)CCCCCCCCC(=O)N[C@H]1C[C@@H](O)[C@@H](NCCN)NC(=O)[C@@H]2[C@@H](O)CCN2C(=O)[C@H]([C@H](O)CCNC(=O)[C@H](CC(C)C)NC(=O)[C@H](CCSC)NC=O)NC(=O)[C@H]([C@H](O)[C@@H](O)c2ccc(O)cc2)NC(=O)[C@@H]2C[C@@H](O)CN2C(=O)[C@H]([C@@H](C)O)NC1=O")
"−1.6"

###

System: A. fumigatus ATCC 13073
measurement.protocol: MEC assay (Example 31)
Type: cell-based
setup.conditions: RPMI pH 7.0, 35° C., 24-48 hr
Measured MEC, listed per entry for reference.
assay.endpoint: MEC (µg/mL)

>>> measurement("CC[C@H](C)C[C@H](C)CCCCCCCCC(=O)N[C@H]1C[C@@H](O)[C@@H](NCCN)NC(=O)[C@@H]2[C@@H](O)CCN2C(=O)[C@H]([C@H](O)CCNC(=O)[C@H](CCCCN)NC(=O)[C@H](Cc2ccccc2)NC(=O)[C@H](CC(C)C)NC(=O)[C@H](CCSC)NC=O)NC(=O)[C@H]([C@H](O)[C@@H](O)c2ccc(O)cc2)NC(=O)[C@@H]2C[C@@H](O)CN2C(=O)[C@H]([C@@H](C)O)NC1=O")
0.25
>>> measurement("CC[C@H](C)C[C@H](C)CCCCCCCCC(=O)N[C@H]1C[C@@H](O)[C@@H](OCCN)NC(=O)[C@@H]2[C@@H](O)CCN2C(=O)[C@H]([C@H](O)CCNC(=O)CCNC(=O)[C@H](Cc2ccccc2)NC(=O)[C@H](CC(C)C)NC(=O)[C@H](CCSC)NC=O)NC(=O)[C@H]([C@H](O)[C@@H](O)c2ccc(O)cc2)NC(=O)[C@@H]2C[C@@H](O)CN2C(=O)[C@H]([C@@H](C)O)NC1=O")
0.25
>>> measurement("CC[C@H](C)C[C@H](C)CCCCCCCCC(=O)N[C@H]1C[C@@H](O)[C@@H](NCCN)NC(=O)[C@@H]2[C@@H](O)CCN2C(=O)[C@H]([C@H](O)CCNC(=O)[C@H](CO)NC(=O)[C@H](CC(C)C)NC(=O)[C@H](CCSC)NC=O)NC(=O)[C@H]([C@H](O)[C@@H](O)c2ccc(O)cc2)NC(=O)[C@@H]2C[C@@H](O)CN2C(=O)[C@H]([C@@H](C)O)NC1=O")
0.5
>>> measurement("CC[C@H](C)C[C@H](C)CCCCCCCCC(=O)N[C@H]1C[C@@H](O)[C@@H](NCCNC(=O)C(Cc2ccccc2)NC(=O)C(CC(C)C)NC(=O)C(CCSC)NC(=O)Nc2ccc(Cl)cc2)NC(=O)[C@@H]2[C@@H](O)CCN2C(=O)[C@H]([C@H](O)CCN)NC(=O)[C@H]([C@H](O)[C@@H](O)c2ccc(O)cc2)NC(=O)[C@@H]2C[C@@H](O)CN2C(=O)[C@H]([C@@H](C)O)NC1=O (single isomer, unassigned) [Compound 13b]")
0.25
